Give measured IC50 for each item. Keep answers brief.
target: human CGT (Homo sapiens, UniProt Q16880); test: Assay 1: CGT Enzymatic Assay (RapidFire/MS/MS, 0.01% Tween 80); assay type: biochemical; conditions: Table 1, Compounds of Formula (I) and Formula (II); CGT enzymatic assay, C6-NBD-dihydro-galactosylceramide readout; read-out: IC50

Identify IC50 associated with the molecule CCc1ccc(N2C(=O)N(c3ccc(C#N)cc3)C3(COC3)C2(O)c2cccc(OC(F)(F)F)c2)cc1 (stereo not shown) < 1000 nM

Identify IC50 associated with the molecule Cc1ccc(N2C(=O)N(c3ccc(C#N)cc3)C3(CCC3)C2(O)c2cccc(C#N)c2)cc1 (stereo not shown) < 1000 nM

Identify IC50 associated with the molecule CC1(C)N(c2ccc(Cl)cc2)C(=O)N(c2ccc(C#N)cc2)C1(O)c1cccc(OC(F)(F)F)c1 (stereo not shown) < 1000 nM

Identify IC50 associated with the molecule COc1ccc(N2C(=O)N(c3ccc(OC)cc3)C(O)(c3cccc(C#N)c3)C2(C)C)cc1 (stereo not shown) 1000 to 10000 nM

Identify IC50 associated with the molecule N#Cc1ccc(N2C(=O)N(c3ccc(C#N)cc3)C(O)(c3cccc(OC(F)(F)F)c3)C23COC3)cc1 (stereo not shown) < 1000 nM

Identify IC50 associated with the molecule CCC[C@]1(C)N(c2ccc(C#N)cc2)C(=O)N(c2ccc(C#N)cc2)C1(O)c1cccc(OC(F)(F)F)c1 (stereo partly shown) < 1000 nM

Identify IC50 associated with the molecule N#Cc1ccc(N2C(=O)N(c3ccc(Cl)cc3)C3(COC3)C2(O)c2cccc(OC(F)(F)F)c2)cc1 (stereo not shown) < 1000 nM

###

Give measured IC50 for each item. Keep answers brief.
Biological target: human CGT (Homo sapiens)
Sequence (Q16880 21-541): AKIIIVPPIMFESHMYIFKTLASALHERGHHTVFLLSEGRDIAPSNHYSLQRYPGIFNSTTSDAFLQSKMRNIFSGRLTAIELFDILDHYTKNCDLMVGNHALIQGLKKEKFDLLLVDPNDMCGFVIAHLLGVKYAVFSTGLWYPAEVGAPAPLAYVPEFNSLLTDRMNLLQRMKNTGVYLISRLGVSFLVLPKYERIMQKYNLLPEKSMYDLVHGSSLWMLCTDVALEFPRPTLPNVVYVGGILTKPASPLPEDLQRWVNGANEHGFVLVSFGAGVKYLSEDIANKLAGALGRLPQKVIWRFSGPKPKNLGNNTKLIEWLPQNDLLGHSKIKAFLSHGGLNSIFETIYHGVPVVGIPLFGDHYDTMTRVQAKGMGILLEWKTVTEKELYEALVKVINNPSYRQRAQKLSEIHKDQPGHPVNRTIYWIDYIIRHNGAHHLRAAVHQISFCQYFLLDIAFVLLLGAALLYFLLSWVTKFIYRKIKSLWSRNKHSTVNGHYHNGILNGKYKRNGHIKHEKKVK
Assay: Assay 1: CGT Enzymatic Assay (RapidFire/MS/MS, 0.01% Tween 80)
Format: biochemical
Conditions: Table 1, Compounds of Formula (I) and Formula (II); CGT enzymatic assay; read-out: IC50

Identify IC50 associated with the compound O=C1N(c2ccc(Cl)cc2)C(C2CC2)C(O)(c2cccc(OC(F)F)c2)N1c1ccc(Cl)cc1 (stereo not shown) < 1 µM

Identify IC50 associated with the compound C[C@@H]1N(c2ccccc2)C(=O)N(c2ccccc2)C1(O)c1cccc(OC(F)(F)F)c1 (stereo partly shown) 1 to 10 µM

Identify IC50 associated with the compound COc1ccc(N2C(=O)N(c3ccc(OC)cc3)C(O)(c3cccc(OC(F)(F)F)c3)C2(C)C)cc1 (stereo not shown) < 1 µM

Identify IC50 associated with the compound CCC[C@H]1N(c2ccc(Cl)cc2)C(=O)N(c2ccc(Cl)cc2)C1(O)c1cccc(CC)c1 (stereo partly shown) < 1 µM

Identify IC50 associated with the compound COc1ccc(C2(O)C(=O)N(c3ccc(Br)cc3)C(=O)N2c2ccc(Br)cc2)cc1 (stereo not shown) 50 to 100 µM

Identify IC50 associated with the compound O=C1N(c2ccc(Br)cc2)[C@@H](c2ccccc2)C(O)(c2ccccc2)N1c1ccc(Br)cc1 (stereo partly shown) 10 to 50 µM

Identify IC50 associated with the compound COCc1c(-c2cccc(C(F)(F)F)c2)n(-c2ccc(Cl)cc2)c(=O)n1-c1ccc(Cl)cc1 < 1 µM

Each recorded value in this set is attributed to patent US20190134005A1.
